# Tested on: 192522-019-R-J2-PDC complex tumor spheroid viability
# EXPERIMENT: Anticancer human tumor 192522-019-R-J2-PDC patient-derived colon adenocarcinoma cell line growth inhibition [POLQ]
# EXPERIMENTAL CONDITIONS: second compound 10 µM; first compound 1 µM; stronger effect = lower value
Catalogue of viability, T/C readings, one per entry.
Give your result in % as a bare value.

// worked examples, viability, T/C included
COMPOUND	UNITS OF MEASURE	viability, T/C
CCCS(=O)(=O)Nc1ccc(F)c(C(=O)c2c[nH]c3ncc(-c4ccc(Cl)cc4)cc23)c1F + COC1C(OC(N)=O)C(O)C(Oc2ccc3c(O)c(NC(=O)c4ccc(O)c(CC=C(C)C)c4)c(=O)oc3c2C)OC1(C)C	%	101
CC(C)n1c(=O)n(C)c2cnc3cc(F)c(-c4ccc(OCCCN5CCCCC5)nc4)cc3c21 + Nc1ccc(C#CCN(C(=O)Cc2ncc(C(F)(F)F)cc2C(F)(F)F)c2ccc(F)cc2)nn1	%	127
CC1COCCN1c1cc(-c2ccnn2C)c2ccnc(-c3ccn[nH]3)c2n1 (stereo not given) + Cc1cccc(N(C)C(=O)C2C(O)CCN2c2nc(C)cc(C(F)(F)F)c2C#N)c1	%	33.8
C=CCn1c(=O)c2cnc(Nc3ccc(N4CCN(C)CC4)cc3)nc2n1-c1cccc(C(C)(C)O)n1 + COC1C(OC(N)=O)C(O)C(Oc2ccc3c(O)c(NC(=O)c4ccc(O)c(CC=C(C)C)c4)c(=O)oc3c2C)OC1(C)C	%	35.7

I have this compound here, COc1ccc([C@@H](O)c2cc(-c3ncnc4cc(N5CCOCC5)ccc34)c(F)cc2Cl)nn1 + Cc1cccc(N(C)C(=O)C2C(O)CCN2c2nc(C)cc(C(F)(F)F)c2C#N)c1 , and I need its recorded viability, T/C.
99.6

---

# Tested on: 192522-019-R-J2-PDC complex tumor spheroid viability
# EXPERIMENT: Anticancer human tumor 192522-019-R-J2-PDC cell line growth inhibition [POLQ];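 also: spheroids exposed to drugs for seven days before reading; 100% = DMSO vehicle control viability in luminescence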
# EXPERIMENTAL CONDITIONS: second compound 0.316 µM; first compound 0.01 µM; stronger effect = lower value
# Method: Multicellular complex tumor spheroid response to Polymerase (POL) inhibitors (novobiocin, ART-558, RP6685) in combination with a variety of drugs and investigational agents in selected tumor cell lines The POL inhibitors (novobiocin, ART-558, and RP6685) were evaluated both individually and in combination with standard of care and investigational anticancer small molecules within a complex spheroid model of solid tumors. . […]
EXPERIMENTAL READOUT: viability, T/C (%)
Give your result in % as a bare value.

COMPOUND	UNITS OF MEASURE	viability, T/C
Cn1ncnc1[C@H]1c2n[nH]c(=O)c3cc(F)cc(c23)N[C@@H]1c1ccc(F)cc1 + COC1C(OC(N)=O)C(O)C(Oc2ccc3c(O)c(NC(=O)c4ccc(O)c(CC=C(C)C)c4)c(=O)oc3c2C)OC1(C)C	%	97.4

I have this compound here, CCc1c2c(nc3ccc(O)cc13)-c1cc3c(c(=O)n1C2)COC(=O)[C@]3(O)CC + COC1C(OC(N)=O)C(O)C(Oc2ccc3c(O)c(NC(=O)c4ccc(O)c(CC=C(C)C)c4)c(=O)oc3c2C)OC1(C)C , and I need its recorded viability, T/C.
56

I have this compound here, CC[C@@]1(O)C(=O)OCc2c1cc1n(c2=O)Cc2cc3c(CN(C)C)c(O)ccc3nc2-1 + Cc1cccc(N(C)C(=O)C2C(O)CCN2c2nc(C)cc(C(F)(F)F)c2C#N)c1 , and I need its recorded viability, T/C.
102

I have this compound here, COc1cccc(OCCCN)c1-c1cc(Nc2cnc(C#N)cn2)n[nH]1 + COC1C(OC(N)=O)C(O)C(Oc2ccc3c(O)c(NC(=O)c4ccc(O)c(CC=C(C)C)c4)c(=O)oc3c2C)OC1(C)C , and I need its recorded viability, T/C.
60.6

I have this compound here, CCc1c2c(nc3ccc(O)cc13)-c1cc3c(c(=O)n1C2)COC(=O)[C@]3(O)CC + Cc1cccc(N(C)C(=O)C2C(O)CCN2c2nc(C)cc(C(F)(F)F)c2C#N)c1 , and I need its recorded viability, T/C.
72.8

I have this compound here, Cn1ncnc1[C@H]1c2n[nH]c(=O)c3cc(F)cc(c23)N[C@@H]1c1ccc(F)cc1 + Cc1cccc(N(C)C(=O)C2C(O)CCN2c2nc(C)cc(C(F)(F)F)c2C#N)c1 , and I need its recorded viability, T/C.
105

I have this compound here, Cn1ncnc1[C@H]1c2n[nH]c(=O)c3cc(F)cc(c23)N[C@@H]1c1ccc(F)cc1 + Nc1ccc(C#CCN(C(=O)Cc2ncc(C(F)(F)F)cc2C(F)(F)F)c2ccc(F)cc2)nn1 , and I need its recorded viability, T/C.
108

I have this compound here, C=CCn1c(=O)c2cnc(Nc3ccc(N4CCN(C)CC4)cc3)nc2n1-c1cccc(C(C)(C)O)n1 + COC1C(OC(N)=O)C(O)C(Oc2ccc3c(O)c(NC(=O)c4ccc(O)c(CC=C(C)C)c4)c(=O)oc3c2C)OC1(C)C , and I need its recorded viability, T/C.
91.6

I have this compound here, CC[C@@]1(O)C(=O)OCc2c1cc1n(c2=O)Cc2cc3c(CN(C)C)c(O)ccc3nc2-1 + Nc1ccc(C#CCN(C(=O)Cc2ncc(C(F)(F)F)cc2C(F)(F)F)c2ccc(F)cc2)nn1 , and I need its recorded viability, T/C.
103

I have this compound here, COc1cccc(OCCCN)c1-c1cc(Nc2cnc(C#N)cn2)n[nH]1 + Nc1ccc(C#CCN(C(=O)Cc2ncc(C(F)(F)F)cc2C(F)(F)F)c2ccc(F)cc2)nn1 , and I need its recorded viability, T/C.
81.4

I have this compound here, C=CCn1c(=O)c2cnc(Nc3ccc(N4CCN(C)CC4)cc3)nc2n1-c1cccc(C(C)(C)O)n1 + Cc1cccc(N(C)C(=O)C2C(O)CCN2c2nc(C)cc(C(F)(F)F)c2C#N)c1 , and I need its recorded viability, T/C.
110

I have this compound here, COc1cccc(OCCCN)c1-c1cc(Nc2cnc(C#N)cn2)n[nH]1 + Cc1cccc(N(C)C(=O)C2C(O)CCN2c2nc(C)cc(C(F)(F)F)c2C#N)c1 , and I need its recorded viability, T/C.
86.2

I have this compound here, CCc1c2c(nc3ccc(O)cc13)-c1cc3c(c(=O)n1C2)COC(=O)[C@]3(O)CC + Nc1ccc(C#CCN(C(=O)Cc2ncc(C(F)(F)F)cc2C(F)(F)F)c2ccc(F)cc2)nn1 , and I need its recorded viability, T/C.
76.2

I have this compound here, C=CCn1c(=O)c2cnc(Nc3ccc(N4CCN(C)CC4)cc3)nc2n1-c1cccc(C(C)(C)O)n1 + Nc1ccc(C#CCN(C(=O)Cc2ncc(C(F)(F)F)cc2C(F)(F)F)c2ccc(F)cc2)nn1 , and I need its recorded viability, T/C.
97.4

I have this compound here, CC[C@@]1(O)C(=O)OCc2c1cc1n(c2=O)Cc2cc3c(CN(C)C)c(O)ccc3nc2-1 + COC1C(OC(N)=O)C(O)C(Oc2ccc3c(O)c(NC(=O)c4ccc(O)c(CC=C(C)C)c4)c(=O)oc3c2C)OC1(C)C , and I need its recorded viability, T/C.
99.6
